- Measured On: EGFR WT (Homo sapiens)
- Construct: endogenous in cells; host or cells: A431 (+H292)
- Sequence (P00533 25-1210): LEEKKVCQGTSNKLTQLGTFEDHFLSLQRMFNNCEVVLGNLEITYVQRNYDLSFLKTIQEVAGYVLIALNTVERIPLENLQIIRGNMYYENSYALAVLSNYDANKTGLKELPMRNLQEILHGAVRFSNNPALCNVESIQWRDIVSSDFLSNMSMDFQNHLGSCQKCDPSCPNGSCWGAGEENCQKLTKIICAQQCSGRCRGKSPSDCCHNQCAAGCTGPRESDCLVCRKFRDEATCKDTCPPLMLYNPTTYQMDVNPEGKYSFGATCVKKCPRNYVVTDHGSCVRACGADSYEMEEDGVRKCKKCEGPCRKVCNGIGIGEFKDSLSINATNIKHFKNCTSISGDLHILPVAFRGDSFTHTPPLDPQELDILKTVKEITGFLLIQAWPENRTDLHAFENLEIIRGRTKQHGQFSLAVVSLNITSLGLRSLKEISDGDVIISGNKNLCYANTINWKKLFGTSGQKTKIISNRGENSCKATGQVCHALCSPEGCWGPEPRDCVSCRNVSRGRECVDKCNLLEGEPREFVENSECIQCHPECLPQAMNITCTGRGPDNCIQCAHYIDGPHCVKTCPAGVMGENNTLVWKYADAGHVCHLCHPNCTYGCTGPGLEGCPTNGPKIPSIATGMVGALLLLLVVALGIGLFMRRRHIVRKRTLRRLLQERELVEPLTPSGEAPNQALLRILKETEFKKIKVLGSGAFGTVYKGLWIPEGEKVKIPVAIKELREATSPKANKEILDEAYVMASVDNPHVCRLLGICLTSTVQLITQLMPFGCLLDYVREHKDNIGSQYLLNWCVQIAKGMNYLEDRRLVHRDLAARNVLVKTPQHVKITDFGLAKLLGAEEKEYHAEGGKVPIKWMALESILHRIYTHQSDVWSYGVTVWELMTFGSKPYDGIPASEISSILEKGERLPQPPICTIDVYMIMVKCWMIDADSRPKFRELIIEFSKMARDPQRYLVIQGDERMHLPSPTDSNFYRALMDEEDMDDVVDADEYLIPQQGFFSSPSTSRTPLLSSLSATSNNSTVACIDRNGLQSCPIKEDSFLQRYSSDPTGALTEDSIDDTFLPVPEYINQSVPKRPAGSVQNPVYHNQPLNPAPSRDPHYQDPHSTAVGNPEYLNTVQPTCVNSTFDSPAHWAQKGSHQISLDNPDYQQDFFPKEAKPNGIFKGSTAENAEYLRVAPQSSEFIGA
- Test Description: Assay for cell proliferation (CellTiterGlo), Activity for Inhibiting EGFR
- Format: cell-based
- Experimental Conditions: Table A (Example 2), potency code; 3 days drug
Recorded Metric: IC50

Look over these answered cases.
[[record]]
molecule = "C=CC(=O)Nc1cc2c(Nc3ccc4c(cnn4Cc4cccc(F)c4)c3)ncnc2cc1N(C)CCCN1CCOCC1"
measured_on = "EGFR WT (Homo sapiens)"
value_reported = "500 to 1000 nM"

[[record]]
molecule = "C=CC(=O)Nc1cc2c(Nc3ccc4c(cnn4Cc4cccc(F)c4)c3)ncnc2cc1OCCCN1CC2CC1CO2 (stereo not drawn)"
measured_on = "EGFR WT (Homo sapiens)"
value_reported = "100 to 200 nM"


Consider the record given below.
Input: Request body: readout IC50, system EGFR WT (Homo sapiens), query C=CC(=O)Nc1cc2c(Nc3ccc4c(cnn4Cc4cccc(F)c4)c3)ncnc2cc1NCCN1CCOCC1 . Return the value.
Output: 200 to 300 nM

Hello, the source for this data is patent US20220041613A1, in case you need it.
